- targetDesc: 5-hydroxytryptamine receptor 1A (Homo sapiens) (UniProt P08908)
- Sequence (whole entry): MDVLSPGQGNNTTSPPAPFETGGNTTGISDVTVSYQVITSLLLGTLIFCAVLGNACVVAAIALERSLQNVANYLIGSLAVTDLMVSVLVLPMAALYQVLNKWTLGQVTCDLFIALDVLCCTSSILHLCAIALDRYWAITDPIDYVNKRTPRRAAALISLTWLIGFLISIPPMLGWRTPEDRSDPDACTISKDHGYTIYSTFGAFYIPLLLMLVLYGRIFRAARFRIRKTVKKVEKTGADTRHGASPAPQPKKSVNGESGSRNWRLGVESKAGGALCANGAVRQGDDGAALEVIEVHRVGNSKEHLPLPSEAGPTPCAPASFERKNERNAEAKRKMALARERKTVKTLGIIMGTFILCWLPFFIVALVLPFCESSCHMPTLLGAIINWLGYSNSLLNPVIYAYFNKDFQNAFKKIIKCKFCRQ
- methodNotes: Intrinsic activity at human 5HT1A receptor expressed in CHO cells by GTPgammaS binding assay relative to serotonin
- Format: functional, cell-based
readoutKind: Emax (%)
Give the quantity in %, number only.

smi=Fc1ccc2[nH]cc([C@H]3CC[C@@H](N4CCN(c5cccc6ncccc56)CC4)CC3)c2c1 resultunit=% resultvalue=0
smi=c1cc(N2CCN([C@H]3CC[C@@H](c4c[nH]c5ccccc54)CC3)CC2)c2cc[nH]c2c1 resultunit=% resultvalue=0

Kindly review the next compound as well.
Param item = Cc1nc2c(N3CCN([C@H]4CC[C@@H](c5c[nH]c6ccccc65)CC4)CC3)cccc2[nH]1 ; retrieve measured Emax.
0
